B1: Hairpin Ribozyme (parent)
chain: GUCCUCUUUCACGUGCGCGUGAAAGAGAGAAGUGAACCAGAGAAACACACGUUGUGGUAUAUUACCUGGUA

Variants of: B1
TEST: self-cleavage, relative activity (ratio to wild type); higher = more cleavage; co-transcriptional
Classification scheme (self-cleavage): low-valued (below 0.1), mid-valued (0.1 to below 0.2), high-valued (0.2 or more)

> print(dat)
   mutant.name        group
1     C3A A31C   mid-valued
2    C18U G34U  high-valued
3    G13C U63A   mid-valued
4    A23C G56A   mid-valued
5    A28U A30C   mid-valued

Let's switch to this variant now.
Lab log: G34A G56U — assign self-cleavage category
mid-valued
